tested on: OVCAR-3 ovarian; test: NCI tumour cell line growth inhibition, 48 h
PROPERTY NAME: GI50

COc1ccc(-c2nsc3c2NC(=O)CC3c2ccc(F)cc2)cc1 (stereo not given): 3.79 µM
CC(C)CCSC1=CC(=O)c2ccccc2C1=O: 1.17 µM
Cc1ccc(S(=O)(=O)Oc2ccc([N+](=O)[O-])cc2[N+](=O)[O-])cc1: 3.24 µM
COc1cc2c(F)nccc2cc1C(=O)N[C@@H](c1ccc(F)c(Cl)c1)[C@@H]1C[C@@H](O)CN1: 8.43 µM
Nc1ccccc1SC(CC(=O)c1ccccc1)c1ccc([N+](=O)[O-])cc1 (stereo not given): 11.4 µM
NC(=NCCCC1(c2ccccc2)CCCC1)Nc1ccc(Cl)cc1: 1.82 µM
NCCCCCCCCn1c2c(c3ccccc3c1=O)C(=O)c1ccccc1-2: 3.5 µM
O=C(CSc1nc2ccccc2nc1-c1ccccc1)Nc1ccc(Cl)cc1: 13.1 µM
COc1c2c3ccccc3nc-2n(C)c2ccccc12: 21 µM
CCOC(CCCNCCCn1c2c(c3cc(OC)c(OC)cc3c1=O)C(=O)c1cc3c(cc1-2)OCO3)OCC: 7.65 µM

Provenance of the data: PubChem BioAssay (NCI)
